# procedure_summary: APR_HepG2_StressKinase_72hr: Apredica 72-hour HepG2 Assay for Stress Kinase (AID 2282921)
# condition_parameters: HepG2 stress kinase (phospho-c-Jun) imaging, actives raise or lower the signal
Calls of active or inactive are those of the source. How the source made its calls: active means hit-call score of the fitted dose curve at least 0.9, where 1 is the maximum; inactive means score below 0.9.
// allowed return values: active, inactive

Here are 5 compounds together with their reported answers.
compound: COc1nc(C)nc(NC(=O)NS(=O)(=O)c2ccccc2CCC(F)(F)F)n1
discrete_label: inactive

compound: CCNc1nc(Cl)nc(NCC)n1
discrete_label: inactive

compound: COC(=O)c1ccccc1C(=O)OC
discrete_label: inactive

compound: O=C(O)c1nc(Cl)ccc1Cl
discrete_label: inactive

compound: CON(C)C(=O)Nc1ccc(Cl)c(Cl)c1
discrete_label: inactive

Could you please tell me the result logged for `CCCCNC(=O)n1c(NC(=O)OC)nc2ccccc21` in this assay?
inactive

// param item: COP(N)(=O)SC (stereo not drawn) ; yields the recorded call
inactive

Which outcome was entered for the compound CCOC(=O)C(Cl)Cc1cc(-n2nc(C)n(C(F)F)c2=O)c(F)cc1Cl (stereo not drawn) in this test?
inactive

State the result this test recorded for C=CC1(C)OC(=O)N(c2cc(Cl)cc(Cl)c2)C1=O (stereo not drawn) .
inactive

For this compound, state the assay outcome: `CCOc1cc(Oc2ccc(C(F)(F)F)cc2Cl)ccc1[N+](=O)[O-]`
inactive

Call for entry `Cc1cc(Cl)ccc1OCC(=O)O` :
inactive

Recorded test outcome, item CCCCC(CC)COC(=O)c1ccccc1C(=O)OCC(CC)CCCC (stereo not drawn)
inactive

Hey, what did the test say about N#Cc1nn(-c2c(Cl)cc(C(F)(F)F)cc2Cl)c(N)c1S(=O)C(F)(F)F (stereo not drawn) ?
active
